endpointName: log10 of O2 permeability (log10 of the value in Barrer)
// stored as log10 of O2 permeability expressed in Barrer

Lab note: measured log10 of O2 permeability of *Oc1ccc(C(C)(C)c2ccc(Oc3ccc4c(c3)C(=O)N(c3cccc(N5C(=O)c6ccc(*)cc6C5=O)c3)C4=O)cc2)cc1 (repeat unit) was -0.40

Lab note: measured log10 of O2 permeability of *c1c(C)cc(C)c(N2C(=O)c3ccc(Sc4ccc5c(c4)C(=O)N(*)C5=O)cc3C2=O)c1C (repeat unit) was 0.91

Lab note: measured log10 of O2 permeability of *Oc1c(C)cc(C(C)(C)c2cc(C)c(Oc3ccc(S(=O)(=O)c4ccc(*)cc4)cc3)c(C)c2)cc1C (repeat unit) was 0.75

Lab note: measured log10 of O2 permeability of *c1cc(C(=O)OCCC(F)(F)C(F)(F)C(F)(F)C(F)(F)C(F)(F)C(F)(F)F)cc(N2C(=O)c3ccc(C(=O)c4ccc5c(c4)C(=O)N(*)C5=O)cc3C2=O)c1 (repeat unit) was 1.29

Lab note: measured log10 of O2 permeability of *C(=C(*)c1ccc([Si](C)(C)C)cc1)c1ccc(-c2ccc(C(C)(C)C)cc2)cc1 (repeat unit) was 2.79

Lab note: measured log10 of O2 permeability of *c1ccc(Oc2ccc(C(=O)c3ccc(Oc4ccc(C(*)(c5ccccc5)C(F)(F)F)cc4)cc3)cc2)cc1 (repeat unit) was -0.04

Lab note: measured log10 of O2 permeability of *Oc1ccc(C(C)(C)c2ccc(OC(*)=O)cc2)cc1 (repeat unit) was 0.17

---

endpointName: log10(CH4 permeability) (log10 of the value in Barrer)
// stored as log10 of CH4 permeability expressed in Barrer

Previously resolved entries follow.
# compound, log10(CH4 permeability)
data = [
    ("*Oc1c(Br)cc(C2(c3cc(Br)c(OC(=O)c4cc(C(*)=O)cc(C(C)(C)C)c4)c(Br)c3)OC(=O)c3ccccc32)cc1Br (repeat unit)", 0.04),
    ("*c1ccc(Oc2ccc(N3C(=O)c4cc(Oc5ccc(C(C)(C)C)cc5)c(-c5cc6c(cc5Oc5ccc(C(C)(C)C)cc5)C(=O)N(*)C6=O)cc4C3=O)cc2)cc1 (repeat unit)", 0.50),
    ("*c1cccc(C(c2cccc(N3C(=O)c4ccc(C(=O)c5ccc6c(c5)C(=O)N(*)C6=O)cc4C3=O)c2)(C(F)(F)F)C(F)(F)F)c1 (repeat unit)", -1.85),
]

Lab note: measured log10(CH4 permeability) of *Oc1ccc(C(=O)c2ccc(-c3ccc(C(=O)c4ccc(Oc5ccc(C(C)(C)c6ccc(*)cc6)cc5)cc4)cc3)cc2)cc1 (repeat unit) was -0.85

Lab note: measured log10(CH4 permeability) of *c1c(C)cc2c(c1C)C1c3ccccc3C2c2cc(C)c(-n3c(=O)c4cc5oc6cc7c(cc6oc5cc4c3=O)C3(C(C)C)c4ccccc4C7(C(C)C)c4cc5oc6cc7c(=O)n(*)c(=O)c7cc6oc5cc43)c(C)c21 (repeat unit) was 2.60

Lab note: measured log10(CH4 permeability) of *CC(*)(C)c1ccccc1 (repeat unit) was -0.85

Lab note: measured log10(CH4 permeability) of *O[Si](C)(C)c1ccc([Si](*)(C)C)cc1 (repeat unit) was 1.08

Lab note: measured log10(CH4 permeability) of *c1ccc2c(c1)-c1nc3ccc(-c4ccc5c(c4)nc4n5C(=O)c5cc(C(c6ccc7c(c6)C(=O)N(*)C7=O)(C(F)(F)F)C(F)(F)F)ccc5-4)cc3n1C2=O (repeat unit) was 0.91

Lab note: measured log10(CH4 permeability) of *Oc1c(C)cc(*)c(C(=O)c2ccccc2)c1C (repeat unit) was -0.02

Lab note: measured log10(CH4 permeability) of *Oc1ccc(Oc2cccc(*)c2C#N)c(-c2cc(C)cc(C)c2)c1 (repeat unit) was -1.22

Lab note: measured log10(CH4 permeability) of *c1ccc(C(c2ccc(N3C(=O)c4ccc(Oc5cc(C)c(Oc6ccc7c(c6)C(=O)N(*)C7=O)c(C)c5C)cc4C3=O)cc2)(C(F)(F)F)C(F)(F)F)cc1 (repeat unit) was 0.23

Lab note: measured log10(CH4 permeability) of *C(=C(*)c1ccc2c(c1)C(C)(C)c1ccccc1-2)c1ccccc1 (repeat unit) was 3.96

Lab note: measured log10(CH4 permeability) of */C=C/C1CC(*)CC1[Si](C)(C)C[Si](C)(C)C (repeat unit) was 0.93

Lab note: measured log10(CH4 permeability) of *C(=C(*)c1ccc(C(C)(C)C)cc1)c1ccc(O[Si](C)(C)C(C)(C)C)cc1 (repeat unit) was 2.73

---

Measured CO2 permeability values are reported for all entries that follow.
Please respond with the number in Barrer and leave the unit unwritten.

Previously resolved entries follow.
# molecule, outputUnit, recordedNumber
records = [
    ("*c1ccc(Cc2ccc(N3C(=O)c4ccc(-c5ccc6c(c5)C(=O)N(*)C6=O)cc4C3=O)cc2Cl)c(Cl)c1 (repeat unit)", "Barrer", 0.335),
    ("*c1ccc(Oc2ccc3ccccc3c2-c2c(Oc3ccc(N4C(=O)c5ccc(C(c6ccc7c(c6)C(=O)N(*)C7=O)(C(F)(F)F)C(F)(F)F)cc5C4=O)cc3)ccc3ccccc23)cc1 (repeat unit)", "Barrer", 15),
    ("*Oc1ccc(S(=O)(=O)c2ccc(Oc3ccc(C(C)(C)c4ccc(*)cc4)cc3N)cc2)cc1 (repeat unit)", "Barrer", 2.95),
    ("*C(=O)c1ccc(C(c2ccc3c(c2)C(=O)n2c-3nc3cc4nc(*)n(*)c4cc32)(C(F)(F)F)C(F)(F)F)cc1* (repeat unit)", "Barrer", 54),
    ("*Oc1ccc(Cc2ccc(Oc3ccc(S(=O)(=O)c4ccc(*)cc4)cc3)cc2)cc1 (repeat unit)", "Barrer", 4.5),
    ("*c1ccc(C(c2ccc(-c3nnc(*)n3-c3ccc(O)cc3)cc2)(C(F)(F)F)C(F)(F)F)cc1 (repeat unit)", "Barrer", 268),
]

Would you kindly look at the next entry?
Lab note: measured CO2 permeability of *c1ccc2c(-c3c(OC(C)=O)ccc4cc(N5C(=O)c6ccc(C(c7ccc8c(c7)C(=O)N(*)C8=O)(C(F)(F)F)C(F)(F)F)cc6C5=O)ccc34)c(OC(C)=O)ccc2c1 (repeat unit) was 5.05

---

Measured CH4 permeability values are reported for all entries that follow.
Returns: string containing the numeric result and its unit.

# compound, result
records = [
    ("*CC(*)c1ccc(OC(C)=O)cc1 (repeat unit)", "0.99 Barrer"),
    ("*c1ccc(Sc2ccc(N3C(=O)c4ccc(C(c5ccc6c(c5)C(=O)N(*)C6=O)(C(F)(F)F)C(F)(F)F)cc4C3=O)cc2)cc1 (repeat unit)", "0.66 Barrer"),
    ("*Nc1ccc(C(c2ccc(NC(=O)c3cccc(C(*)=O)c3)cc2)(C(F)(F)F)C(F)(F)F)cc1 (repeat unit)", "0.2 Barrer"),
    ("*Oc1ccc(C(C)(C)c2ccc(Oc3ccc4c(c3)C(=O)N(c3ccc(N5C(=O)c6ccc(*)cc6C5=O)cc3)C4=O)cc2)cc1 (repeat unit)", "0.04 Barrer"),
    ("*Nc1ccc(C(c2ccc(NC(=O)c3ccc(Oc4cc(C(C)(C)C)c(Oc5ccc(C(*)=O)cc5)cc4C(C)(C)C)cc3)cc2)(C(F)(F)F)C(F)(F)F)cc1 (repeat unit)", "1.24 Barrer"),
    ("*C=C(*)c1cccc(O[Si](C)(C)C(C)(C)C)c1 (repeat unit)", "12 Barrer"),
    ("*c1cc(-c2nc3cc(-c4ccc5[nH]c(*)nc5c4)ccc3[nH]2)cc(C(C)(C)C)c1 (repeat unit)", "0.05 Barrer"),
    ("*Oc1ccc(S(=O)(=O)c2ccc(-c3ccc(S(=O)(=O)c4ccc(Oc5ccc(C(C)(C)c6ccc(*)cc6)cc5)cc4)cc3)cc2)cc1 (repeat unit)", "0.5 Barrer"),
]

Lab note: measured CH4 permeability of *c1ccc(-c2ccc(N3C(=O)c4ccc(Oc5cc(C(C)(C)C)ccc5Oc5ccc6c(c5)C(=O)N(*)C6=O)cc4C3=O)c(OC)c2)cc1OC (repeat unit) was 0.16 Barrer

Lab note: measured CH4 permeability of *c1c(C)c2c(c(N3C(=O)c4ccc(Oc5ccc6c(c5)C(=O)N(*)C6=O)cc4C3=O)c1C)C(C)(C)CC2 (repeat unit) was 10.3 Barrer

Lab note: measured CH4 permeability of *CC(*)C(=O)OC (repeat unit) was 0.262 Barrer

Lab note: measured CH4 permeability of *C(=C(*)c1cccc(O[Si](C)(C)C(C)(C)C)c1)c1ccc(C(C)(C)C)cc1 (repeat unit) was 3300 Barrer

Lab note: measured CH4 permeability of *Oc1ccc(-c2ccc(C3CCC(Oc4ccc(C5(c6ccc(*)cc6)c6ccccc6-c6ccccc65)cc4)C(C(F)(F)F)C3)s2)cc1C(F)(F)F (repeat unit) was 1.8 Barrer

Lab note: measured CH4 permeability of *O[Si](*)(C)CCC (repeat unit) was 570 Barrer

Lab note: measured CH4 permeability of *Oc1ccc(C(C)(c2ccccc2)c2ccc(OC(=O)c3cccc(C(*)=O)c3)cc2)cc1 (repeat unit) was 0.59 Barrer

Hello, the source for this data is a polymer gas permeability compilation, in case you need it.
